B1: PTPN9 (parent)
chain: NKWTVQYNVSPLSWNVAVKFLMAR

variants of: B1; test: protein stability index of a GFP-peptide fusion (GPS, HEK-293T) (PSI 1-6); higher = more stable; conditions: c terminus: a fixed tail appended;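 further: lentivirally expressed fusions sorted by FACS into six bins by GFP to DsRed ratio, PSI derived from sequencing read proportions per bin multiplied by bin number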
Below, each of the variants is paired with its reported protein stability index value.
READOUT LABEL: protein stability index

1. A23I = 2.44
2. W3I = 2.66
3. S13D = 2.74
4. A23Q = 2.55
5. N15A = 3.46
